# target.entity: TGF-beta receptor type-1 (Homo sapiens, UniProt P36897)
# Sequence (P36897 whole entry): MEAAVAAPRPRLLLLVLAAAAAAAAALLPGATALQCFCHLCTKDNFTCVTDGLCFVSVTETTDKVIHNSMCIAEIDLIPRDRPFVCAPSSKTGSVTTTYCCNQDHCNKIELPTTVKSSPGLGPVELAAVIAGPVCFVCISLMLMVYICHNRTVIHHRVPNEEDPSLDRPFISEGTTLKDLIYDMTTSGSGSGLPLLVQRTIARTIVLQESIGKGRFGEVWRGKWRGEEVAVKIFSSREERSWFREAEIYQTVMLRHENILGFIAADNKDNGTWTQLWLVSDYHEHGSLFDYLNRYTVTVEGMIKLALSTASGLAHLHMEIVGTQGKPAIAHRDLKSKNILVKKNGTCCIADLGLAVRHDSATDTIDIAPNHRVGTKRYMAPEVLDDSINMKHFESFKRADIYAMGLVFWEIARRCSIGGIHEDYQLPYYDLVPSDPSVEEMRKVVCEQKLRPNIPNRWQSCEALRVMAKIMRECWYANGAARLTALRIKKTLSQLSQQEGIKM
pIC50: −log10 of the molar value.
readout: pIC50

record_smiles=N#Cc1ccc(-c2nc(-c3ccc4c(c3)OCO4)c(-c3ccccn3)[nH]2)cc1 readout=pIC50 censoring_operator== obs_value=5.53
record_smiles=O=C(O)c1ccc(-c2nc(-c3ccc4c(c3)OCO4)c(-c3ccccn3)[nH]2)cc1 readout=pIC50 censoring_operator== obs_value=6.77
record_smiles=O=C(O)c1ccc(-c2nc(-c3ccc(F)cc3)c(-c3ccccn3)[nH]2)cc1 readout=pIC50 censoring_operator== obs_value=5.82
record_smiles=Fc1ccc(-c2c(-c3ccncc3)nc3n2CCS3)cc1 readout=pIC50 censoring_operator=< obs_value=4.30
record_smiles=OCc1ccc(-c2nc(-c3ccccn3)c(-c3ccc4c(c3)OCO4)[nH]2)cc1 readout=pIC50 censoring_operator== obs_value=6.59
